- EXPERIMENTAL SYSTEM: UniProtKB P08254
- Sequence (P08254 100-272 limits assumed): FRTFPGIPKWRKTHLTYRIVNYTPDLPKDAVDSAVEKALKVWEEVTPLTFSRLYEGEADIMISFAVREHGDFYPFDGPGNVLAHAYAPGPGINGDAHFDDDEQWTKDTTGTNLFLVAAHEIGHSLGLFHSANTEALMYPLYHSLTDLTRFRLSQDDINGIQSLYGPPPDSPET
ENDPOINT LABEL: IC50 (µM)
API: value field is a number in µM; no unit string.

Task item: Kindly indicate its recorded IC50. Item: `Cc1cc(=O)c(O)c(C(=O)Nc2ccc(-c3ccccc3)cc2)o1`
Reply: 90
